Source of measurements: patent US10280170B2

- Tgt: Ros1 enzyme (Homo sapiens)
- Construct: 0.5 μg/ml Ros1 enzyme
- Sequence (P08922 28-2347): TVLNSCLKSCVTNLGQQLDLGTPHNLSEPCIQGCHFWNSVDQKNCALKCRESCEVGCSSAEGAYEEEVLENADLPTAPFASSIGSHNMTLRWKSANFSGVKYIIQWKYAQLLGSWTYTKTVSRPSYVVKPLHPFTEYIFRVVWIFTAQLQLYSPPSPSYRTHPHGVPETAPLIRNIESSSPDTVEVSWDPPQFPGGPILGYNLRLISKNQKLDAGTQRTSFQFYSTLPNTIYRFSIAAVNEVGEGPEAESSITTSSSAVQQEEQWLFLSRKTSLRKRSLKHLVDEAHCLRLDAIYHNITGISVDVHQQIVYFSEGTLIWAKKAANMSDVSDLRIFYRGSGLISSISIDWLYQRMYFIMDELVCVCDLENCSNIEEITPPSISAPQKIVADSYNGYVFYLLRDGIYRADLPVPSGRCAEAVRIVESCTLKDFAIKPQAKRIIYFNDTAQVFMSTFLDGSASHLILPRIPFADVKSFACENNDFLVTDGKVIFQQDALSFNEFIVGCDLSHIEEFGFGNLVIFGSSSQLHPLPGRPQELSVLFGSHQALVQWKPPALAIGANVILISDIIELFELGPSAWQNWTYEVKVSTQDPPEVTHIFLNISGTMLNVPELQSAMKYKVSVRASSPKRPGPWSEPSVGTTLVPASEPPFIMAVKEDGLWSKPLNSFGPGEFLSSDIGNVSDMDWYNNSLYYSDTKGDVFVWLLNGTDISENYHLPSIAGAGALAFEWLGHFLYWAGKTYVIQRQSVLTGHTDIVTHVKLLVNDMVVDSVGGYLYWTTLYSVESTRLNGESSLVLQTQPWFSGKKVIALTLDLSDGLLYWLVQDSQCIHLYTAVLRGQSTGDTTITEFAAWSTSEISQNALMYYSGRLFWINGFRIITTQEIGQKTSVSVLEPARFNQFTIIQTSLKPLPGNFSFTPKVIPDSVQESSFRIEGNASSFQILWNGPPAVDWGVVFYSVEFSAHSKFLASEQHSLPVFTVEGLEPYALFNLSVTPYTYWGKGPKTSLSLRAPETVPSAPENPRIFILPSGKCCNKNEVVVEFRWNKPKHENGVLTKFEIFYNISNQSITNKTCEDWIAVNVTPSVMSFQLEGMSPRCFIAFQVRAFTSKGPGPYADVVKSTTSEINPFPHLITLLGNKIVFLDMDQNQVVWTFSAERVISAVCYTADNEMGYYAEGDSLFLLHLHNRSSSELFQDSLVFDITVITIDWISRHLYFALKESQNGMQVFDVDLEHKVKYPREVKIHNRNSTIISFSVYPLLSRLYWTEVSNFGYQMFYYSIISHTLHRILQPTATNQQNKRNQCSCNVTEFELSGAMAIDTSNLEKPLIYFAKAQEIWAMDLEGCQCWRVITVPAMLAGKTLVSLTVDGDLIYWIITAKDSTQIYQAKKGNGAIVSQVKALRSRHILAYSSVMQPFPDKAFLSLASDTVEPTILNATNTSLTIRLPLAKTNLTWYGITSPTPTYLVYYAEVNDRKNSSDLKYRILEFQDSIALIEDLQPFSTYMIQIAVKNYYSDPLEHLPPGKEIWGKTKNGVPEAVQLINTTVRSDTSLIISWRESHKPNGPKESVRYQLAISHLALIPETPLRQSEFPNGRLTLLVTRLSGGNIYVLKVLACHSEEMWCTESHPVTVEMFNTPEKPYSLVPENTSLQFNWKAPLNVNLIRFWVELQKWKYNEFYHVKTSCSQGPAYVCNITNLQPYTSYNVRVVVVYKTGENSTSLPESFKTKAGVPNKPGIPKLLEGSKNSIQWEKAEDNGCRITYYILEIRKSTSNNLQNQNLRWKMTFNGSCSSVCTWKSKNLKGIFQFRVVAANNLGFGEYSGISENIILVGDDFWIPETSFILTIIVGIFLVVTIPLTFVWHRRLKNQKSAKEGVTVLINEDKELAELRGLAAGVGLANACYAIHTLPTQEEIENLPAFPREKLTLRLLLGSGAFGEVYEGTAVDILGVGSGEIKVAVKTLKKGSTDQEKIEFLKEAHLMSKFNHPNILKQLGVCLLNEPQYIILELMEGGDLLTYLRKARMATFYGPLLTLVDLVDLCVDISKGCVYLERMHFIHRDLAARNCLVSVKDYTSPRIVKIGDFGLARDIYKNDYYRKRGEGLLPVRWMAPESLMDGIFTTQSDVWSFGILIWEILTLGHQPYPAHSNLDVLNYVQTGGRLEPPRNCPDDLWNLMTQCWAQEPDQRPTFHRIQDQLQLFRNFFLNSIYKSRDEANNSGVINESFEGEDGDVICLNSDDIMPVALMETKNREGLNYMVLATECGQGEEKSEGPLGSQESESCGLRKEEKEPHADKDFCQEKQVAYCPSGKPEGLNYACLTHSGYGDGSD
- Assay Name: Ros1 enzymatic assay
- Assay type: biochemical
- Assay Context: Ros1 enzymatic assay; read-out: ROS1 pIC50 (converted)
- Method: Compounds were spotted onto white 384-well Proxiplate plus plates (Perkin Elmer) to which 5 μl of enzyme mix (0.5 μg/ml Ros1 enzyme, 50 mM Tris-HCl pH7.5, 1 mM EGTA, 10 mM MgCl2, 0.01% Tween-20) and 5 μl of substrate mix (6 μg/ml IRS-Tide [American Peptide Company], 20 μM ATP, 13.33 μCi/ml ATP (adenosine 5′-triphosphate) P^33, 50 mM Tris-HCl pH7.5, 1 mM EGTA (ethylene glycol-bis(2-aminoethylether)-N,N,N′,N′-tetraacetic acid), 10 mM MgCl2, 0.01% Tween-20) were added. […]
Measured IC50 of individual entries
Dear colleague, please return just the value in nM, with no unit written.

// known answers, use as guide
Compound | IC50 [nM]
CC(C)c1ccc(COc2ccc(-c3c(-c4ccncc4)nn4c3C(=O)N(CCO)CC4)cc2)cc1F | 79.4
COc1ccc(COc2ccc(-c3c(-c4ccncn4)nn4c3C(=O)NCC4)cc2)cc1 | 1000
CCC(C)c1ccc(COc2ccc(-c3c(-c4ccncc4)nn4c3C(=O)NCC4)cc2)cc1 (stereo not shown) | 25.1

Prompt: Give its IC50 value. Item: CC(C)c1ccc(COc2cc(F)c(-c3c(-c4ccncc4)nn4c3C(=O)NCC4)cc2F)cc1
Response: 6.31
